target: PD-1/PD-L1 (Homo sapiens, UniProt Q9NZQ7)
Construct: Recombinant human PD-L1 protein (19-238) with a His-tag at the C-terminus; purchased AcroBiosystems PD1-H5229 (PD-L1); PD1-H5257 (PD-1)
Sequence (Q9NZQ7 19-238): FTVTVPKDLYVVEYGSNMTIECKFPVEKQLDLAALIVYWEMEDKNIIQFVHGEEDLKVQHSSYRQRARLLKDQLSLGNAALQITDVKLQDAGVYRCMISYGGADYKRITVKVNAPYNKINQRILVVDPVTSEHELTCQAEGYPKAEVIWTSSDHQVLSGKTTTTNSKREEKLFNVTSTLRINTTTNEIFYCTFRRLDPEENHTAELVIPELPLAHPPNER
method-summary: PD-1/PD-L1 homogenous time-resolved fluorescence (HTRF) binding assay
condition: recombinant human PD-L1 (19-238) His-tag / human PD-1 (25-167) Fc tag, class symbols
pIC50: −log10 of the molar value.
Item-by-item account of pIC50

Test system PD-1/PD-L1 (Homo sapiens, UniProt Q9NZQ7); read-out pIC50; what value for COC(=O)CN1CCc2nc(C(=O)N3CCc4c(-c5cccc6c5CCN6C(=O)c5nc6c(s5)CN(CC(=O)OC)CC6)cccc43)sc2C1 [Example 102] ?
> 7.60

More entries:
API: value(readout= pIC50, system= PD-1/PD-L1 (Homo sapiens, UniProt Q9NZQ7), query= O=C(Nc1cccc(-c2cccc(NC(=O)c3nc4c(s3)CN(C3COC3)CC4)c2Cl)c1Cl)c1nc2c(s1)CN(C1COC1)CC2 [Example 92] )
> 7.60

What about CNC(C)c1cnc(C(=O)Nc2cccc(-c3cccc(NC(=O)c4cnc(C(C)NC)cn4)c3C)c2C)cn1 (stereo not drawn) [Example 180] ?
> 7.60

Continue with Cc1c(NC(=O)c2ccc3c(n2)CCN(CCN2CCOCC2)C3)cccc1-c1cccc(NC(=O)c2ccc3c(n2)CCN(CCN2CCOCC2)C3)c1C [Example 176]
7.00 to 7.60

Next: COC(=O)N[C@H](C(=O)N1CCc2nc(C(=O)Nc3cccc(-c4cccc(NC(=O)c5ccc6c(n5)CCN(C(=O)[C@@H](NC(=O)OC)C(C)C)C6)c4C)c3C)ccc2C1)C(C)C [Example 169]
> 7.60

Same read-out for O=C(Nc1cccc(-c2cccc(NC(=O)c3nc4c(s3)CNCC4)c2Cl)c1Cl)c1nc2c(s1)CNCC2 [Example 89] ?
> 7.60
